src = ChEMBL document CHEMBL5604062

molecular target: Nonstructural protein 3 (Zika virus); test: Functional biochemical assay to identify treatments for viral infectious disease that targets Zika NS2B-NS3 protease. Utilizing a direct enzyme activity measurement method, reading the fluorescence intensity is used to characterize the relative potency of inhibitors as IC50.; parameters: species or system PRVABC59
pIC50: −log10 of the molar value.
Recorded pIC50 values for a group of compounds are listed next.

pIC50 lookup needed for CN(C)Cc1csc(NC(=O)c2cc(Cl)cc(NC(=O)OCc3ccccc3)c2)n1 , thanks. < 4.00

====

target: Nonstructural protein 3 (Zika virus, UniProt A0A024AXB9); experiment: Functional biochemical assay to identify treatments for viral infectious disease that targets Zika NS2B-NS3 protease. Utilizing a direct enzyme activity measurement method, reading the fluorescence intensity is used to characterize the relative potency of inhibitors as IC50.; set-up: species or system PRVABC59
Sequence (A0A024AXB9 whole entry): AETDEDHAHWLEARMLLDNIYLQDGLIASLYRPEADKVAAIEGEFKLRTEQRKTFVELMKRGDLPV
Recorded pIC50 values for a group of compounds are listed next.
Note on units: pIC50 is unitless, being -log10 of a concentration expressed in mol/L.

>  <smiles notation>
Cc1ccc2cc(Cl)cc(C(=O)Nc3ccc4c(c3)CNC4)c2n1

>  <pIC50>
6.06

$$$$

Next item in the queue.
pIC50 lookup needed for CNCc1cc(Cl)cc(C(=O)Nc2cccc(CN)c2)c1 , thanks. 5.85
